Experiment: Single-dose escalation pharmacokinetics in volunteers
Assay type: in vivo, human
Settings: human, plasma; 480 mg dosage as free base equivalent, single oral dose; read-out: mean maximum blood plasma concentration (mean Cmax) of the free base
readout type: Cmax (ng/mL)
Express it in ng/mL; write the number only.

Q: Would you kindly share the measured Cmax for CS(=O)(=O)O.Cc1nc(N(C)C(=O)Cc2ccc(-c3ccccn3)cc2)sc1S(N)(=O)=O [mono mesylate monohydrate salt] ?
Result: 6920

----------
Assay: Single-dose escalation pharmacokinetics in volunteers
Format: in vivo, human
Settings: plasma; single oral dose 160 mg free base equivalent; human; mean, n = 6
readout type: MRT (h)
Express it in h; write the number only.

Q: Would you kindly share the measured MRT for CS(=O)(=O)O.Cc1nc(N(C)C(=O)Cc2ccc(-c3ccccn3)cc2)sc1S(N)(=O)=O [mono mesylate monohydrate salt] ?
Result: 83
